# Tested on: biotinyl-Leu-oxazolone
# assay.details: self-aminoacylation, catalytic enhancement (BLO) (fold over background); higher = more active; k-Seq, kA / k0A0; sequences stand for … in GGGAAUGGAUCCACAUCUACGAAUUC…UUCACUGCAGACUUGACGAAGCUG
Variants at the floor of the assay were thinned out.
property.name: self-aminoacylation
Lab note: jot the number down without any unit.

Prompt: Lookup: self-aminoacylation / biotinyl-Leu-oxazolone / AGGUUUGCUAAUAAUCGCAAG [Fam3.1 aminoacylation ribozyme variant]
Response: 0.822

Prompt: Next up: AUUCACCGAGGUCAUCGGAUG [Fam2.2 aminoacylation ribozyme variant]
Response: 1.41

Prompt: Cool, now ACUACCUUGGUCAUCGAGUGA [Fam2.1 aminoacylation ribozyme variant]
Response: 4.02

Prompt: Consider next the sequence AAGUUGGCUAAUAGUCGCAGG [Fam3.1 aminoacylation ribozyme variant] in the same way.
Response: 1.97

Now look at this entry.
Prompt: Write down the reported self-aminoacylation of CUACUUCGACCAAUCGGUCUG [Fam1A.1 aminoacylation ribozyme variant] , test system: biotinyl-Leu-oxazolone.
Response: 0.979

###

# System: biotinyl-Leu-oxazolone
# assay.details: self-aminoacylation, catalytic enhancement (BLO) (fold over background); higher = more active; k-Seq, kA / k0A0; sequences stand for … in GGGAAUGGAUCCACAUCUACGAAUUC…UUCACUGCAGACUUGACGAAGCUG
This sample holds only a part of the variants without activity.
property.name: self-aminoacylation
Note: the reply should be a number with no unit written.

Below are worked cases with known answers.
Prompt: Recorded self-aminoacylation of CCACACUUAAACCAAUCGGUC [Fam1B.1 aminoacylation ribozyme variant] , please.
Response: 0.572

Prompt: Would you kindly repeat that for CUACUUCAAUCAACCGGUCUG [Fam1A.1 aminoacylation ribozyme variant] ?
Response: 0.729

Prompt: Moving on to AUUUACCUAGGUCAUCCGGUG [Fam2.2 aminoacylation ribozyme variant]
Response: 7.4

Prompt: Input AAUUUUGAUAAUAGUCGCAAG [Fam3.1 aminoacylation ribozyme variant]
Response: 1.64

More entries:
Prompt: Look at this sequence and give its reported self-aminoacylation. AAGUUUGCGAAUAGUCGCAAA [Fam3.1 aminoacylation ribozyme variant]
Response: 1.38

Prompt: CUGCUUCAACCAAUCGGUCUG [Fam1A.1 aminoacylation ribozyme variant] , same question.
Response: 2.45

Prompt: Also, AUUCACCUAGGCCUUCGGGUG [Fam2.2 aminoacylation ribozyme variant] please.
Response: 5.19

Prompt: Next sequence: CCACAAUUCAAGCACUCGGUC [Fam1B.1 aminoacylation ribozyme variant]
Response: 1.24

Prompt: Also check AAGUUUGCCAAUAGUCGGAAG [Fam3.1 aminoacylation ribozyme variant]
Response: 0.941

###

# Tested on: biotinyl-Leu-oxazolone
# assay.details: self-aminoacylation, catalytic enhancement (BLO) (fold over background); higher = more active; k-Seq, kA / k0A0; sequences stand for … in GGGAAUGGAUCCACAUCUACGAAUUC…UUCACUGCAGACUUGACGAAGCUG
Fewer inactive variants are shown than the library holds.
property.name: self-aminoacylation
// response body must contain only the number

Some sequences with known self-aminoacylation results, for comparison:
Prompt: Field request: self-aminoacylation | item: AUUCACCUACGUGAUCGGGUG [Fam2.2 aminoacylation ribozyme variant]
Response: 3.64

Prompt: Another: AUACUUCAAACAAGCGGUCUG [Fam1A.1 aminoacylation ribozyme variant]
Response: 1.01

Prompt: Another sequence: ACUCACCUAGGUCUUCGGGUG [Fam2.2 aminoacylation ribozyme variant]
Response: 6.01

Continuing:
Prompt: # query: self-aminoacylation of entry CCACACUUCUAGCAAUCGGUU [Fam1B.1 aminoacylation ribozyme variant]
Response: 1.13

Prompt: // same read-out, input: AAGGUUGCUCAUAGUCGCAAG [Fam3.1 aminoacylation ribozyme variant]
Response: 1.63

Prompt: How about CCACACUUCACGCAAUCGAUC [Fam1B.1 aminoacylation ribozyme variant] ?
Response: 0.514

Prompt: Repeat for the following sequence: AUCCACCUUGGUCAUCGGGUG [Fam2.2 aminoacylation ribozyme variant]
Response: 7.29

Prompt: Continue with CUACUUGAAACAAUCGGCCUG [Fam1A.1 aminoacylation ribozyme variant]
Response: 1.45

Prompt: Also AUUUCCCUGGCCAUCGAGUGA [Fam2.1 aminoacylation ribozyme variant] ?
Response: 2.78

###

# Tested on: biotinyl-Leu-oxazolone
# assay.details: self-aminoacylation, catalytic enhancement (BLO) (fold over background); higher = more active; k-Seq, kA / k0A0; sequences stand for … in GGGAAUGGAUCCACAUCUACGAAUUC…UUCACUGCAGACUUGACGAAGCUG
Fewer inactive variants are shown than the library holds.
Here, each record is paired with measured self-aminoacylation data.
Would you mind answering with just the numeric figure?

Sample answers from the record:
Prompt: Fill blank: measured self-aminoacylation of the sequence UUUCACCUAGGUCUUCGGGUG [Fam2.2 aminoacylation ribozyme variant] is ____.
Response: 5.06

Prompt: Lookup AUUACCCUGGUCAUCGAAUGU [Fam2.1 aminoacylation ribozyme variant]
Response: 1.06

Further cases:
Prompt: Fill in the blank: the reported self-aminoacylation of GUUACCCUGGUCAUCGAGUAA [Fam2.1 aminoacylation ribozyme variant] is ____.
Response: 21.8

Prompt: Continue with CUACUUCAAACGAUCGGGCUG [Fam1A.1 aminoacylation ribozyme variant]
Response: 1.23

Prompt: Proceed to AUUCGCAUAGGUCAUCGGGUG [Fam2.2 aminoacylation ribozyme variant]
Response: 12.2

Prompt: Then what about the sequence AUUACGCUGGUCAUCCAGUGA [Fam2.1 aminoacylation ribozyme variant] ?
Response: 3.99

Prompt: Let us now turn to AAGUUUGCUAAUAGUCGCAUA [Fam3.1 aminoacylation ribozyme variant]
Response: 0.954

Prompt: How about this sequence: CAACUUCAAACAAACGGUCUG [Fam1A.1 aminoacylation ribozyme variant]
Response: 0.995

Prompt: Note, next up: UUUACCCUGGUCAUCGAGUGU [Fam2.1 aminoacylation ribozyme variant]
Response: 71.5

Prompt: Likewise for CUUUACCUAGGUCAUCGGGUG [Fam2.2 aminoacylation ribozyme variant] ?
Response: 7.1

Prompt: And the next one, AAGUUUGCUAAUAGGCGCGAG [Fam3.1 aminoacylation ribozyme variant] ?
Response: 0.954

Prompt: Now try AAGUUUGCUAAUAGUCGUUAG [Fam3.1 aminoacylation ribozyme variant] .
Response: 0.801

Prompt: Now give it for AUUCACCUAGGUCACCGGGGG [Fam2.2 aminoacylation ribozyme variant] too.
Response: 3.12

Prompt: Also AUUCACCUAGGUCAUUGGGUC [Fam2.2 aminoacylation ribozyme variant] ?
Response: 0.89

Prompt: Queued: CCACACGUCAAGCCAUCGGUC [Fam1B.1 aminoacylation ribozyme variant]
Response: 1.48

Prompt: And the next one, AUUACCCUGGUCAGCGAGUAA [Fam2.1 aminoacylation ribozyme variant] ?
Response: 1.14

Prompt: Now consider AUUCACCUAAGUCAUCGGCUG [Fam2.2 aminoacylation ribozyme variant] and answer again.
Response: 1.63

###

# Tested on: biotinyl-Phe-oxazolone
# assay.details: self-aminoacylation, catalytic enhancement (BFO) (fold over background); higher = more active; k-Seq, kA / k0A0; sequences stand for … in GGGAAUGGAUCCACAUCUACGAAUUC…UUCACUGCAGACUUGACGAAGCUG
Fewer inactive variants are shown than the library holds.
Consider the following sequences and their measured self-aminoacylation readings.
Give your answer as a number; write no unit.

Here's what some known entries look like.
Prompt: Can you share its self-aminoacylation? I mean this sequence: CAACACUUCAAGCAAUCGGUU [Fam1B.1 aminoacylation ribozyme variant]
Response: 6.96

Prompt: Likewise for AUUAACCUGGUCAUCGAGAGA [Fam2.1 aminoacylation ribozyme variant] ?
Response: 0.933

Prompt: And then CGACUCCAAACAAUCGGUCUG [Fam1A.1 aminoacylation ribozyme variant] , what is it?
Response: 3.55

---
Prompt: Fill in the blank: the reported self-aminoacylation of AAGUUUACUAAUAGUCGCUAG [Fam3.1 aminoacylation ribozyme variant] is ____.
Response: 2.43

Prompt: Entry CCGCACUUCCAGCAAUCGGUC [Fam1B.1 aminoacylation ribozyme variant] please
Response: 0.932

Prompt: Another: UUACUUCAAAAAAUCGGUCUG [Fam1A.1 aminoacylation ribozyme variant]
Response: 7.17

Prompt: Continue with ACUCACCUAGUUCAUCGGGUG [Fam2.2 aminoacylation ribozyme variant]
Response: 19.7

Prompt: Param item: AUUCACCUAGCUCAUCGGUUG [Fam2.2 aminoacylation ribozyme variant]
Response: 0.258

Prompt: Also need CCACACUUCAACCUAUCGGUC [Fam1B.1 aminoacylation ribozyme variant] , thanks.
Response: 1.18

Prompt: What would you report for GUUACCCUGGUCAUCGGGUGA [Fam2.1 aminoacylation ribozyme variant] ?
Response: 503

Prompt: Lookup CCGCACUUCAAGCAAUCGGUG [Fam1B.1 aminoacylation ribozyme variant]
Response: 55.1

Prompt: Proceed to AUUUACCAAGGUCAUCGGGUG [Fam2.2 aminoacylation ribozyme variant]
Response: 77.2

Prompt: Repeat for the following sequence: AUUCACCAAUGUCAUCGGGUG [Fam2.2 aminoacylation ribozyme variant]
Response: 75.3

Reference for the values: the supplement of paper PMC9233669
